Record form. Attribute: PBM binding z-score. Fill in for each entry.
# Test system: RXRa DBDmut IVT, anti-RXR (DBD mutation: RXRa K156A/R161A, NR concentration 90 nM)
# EXPERIMENT: PBM binding z-score (relative to random genomic background probes); higher = stronger binding; sequences stand for … in GC…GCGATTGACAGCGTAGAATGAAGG
Answers are plain numbers.

biosequence=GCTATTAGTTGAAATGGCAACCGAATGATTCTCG study_system="RXRa DBDmut IVT, anti-RXR (DBD mutation: RXRa K156A/R161A, NR concentration 90 nM)" measurement_type="PBM binding z-score" recorded_value=0.893
biosequence=TATACAGGGTCAAAGGCGAGAGTACGAATGTCGA study_system="RXRa DBDmut IVT, anti-RXR (DBD mutation: RXRa K156A/R161A, NR concentration 90 nM)" measurement_type="PBM binding z-score" recorded_value=2.92

Provide PBM binding z-score for all items below, preserving their order.
1. TAGCCTAGGTTATTGGGCCAGTATAGTACGCATC
2. ATCGAAAGGTCGTGAGATGAGTATACAGAAAGGC
3. CCTTACGGGTCAAGGCTATAGCACGGGTGGTACG

Found:
-0.294
0.915
0.343

Provide PBM binding z-score for all items below, preserving their order.
1. GCGACTGGGGCGTCAGCAGGTTACCATAACTTAA
2. CGCCCAAGGTCAAAGGTCAGTGAAGAGATGACGG

Found:
1. -0.119
2. 3.9

Provide PBM binding z-score for all items below, preserving their order.
1. TCAGCCAGGTGAAGGTAACTCAGGTACGCAGTCG
2. ATATGTAGGTTAAGGGTCATTCATGTTGGTTCGC
3. CAAACTAGGTCACAGAGGTCAAAGTACGTGCGTA
4. CGAACTAGGTCATCCAGGCCAGTGAATACATTGA
5. CGTCGAAGGTCAAGGTCAGTGAAAGAGACTCGAA
6. ACAGACAGGTGATGAAGGTAACTAAGGCTATCAT
7. ATCGAAAGGTCGAAGGTGAGTAAACCCACCCGAA
8. ACAGACCGGTGATGAAGGTAACTCAGGCTATCAT

Found:
[0.397, 2.3, 3.46, 2.18, 2.59, -0.521, 1.23, -0.318]

Provide PBM binding z-score for all items below, preserving their order.
1. CACACTAGGTCACCGGAAGGTCAAAGTCCGCATG
2. CCAGACAGGTGAGAAGGTAACTCCGCCTCGATTA
3. GCGACTGGGGCAAAGCAGGGTACCATAAGGTTGG
4. CCTACTGGGGCAGAAAGGTTACCATACCATCCGG
5. CGTCCAAGGTCAGCAGGTCAGTGAGAGCGACGTG
6. TCTAGTAGGCCAGAGGGTCACTCAAGAGGTACGG

Found:
1. 2.24
2. -0.0199
3. -0.678
4. -1.01
5. 2.46
6. 0.571
